Please provide measured self-splicing fitness (ln) for the entries that follow.
# protocol: self-splicing fitness, log relative to wild type (ln ratio); higher = more splicing; Tetrahymena group I intron in knt gene, E. coli kanamycin selection, DiMSum; sequences stand for … in CUCUCU…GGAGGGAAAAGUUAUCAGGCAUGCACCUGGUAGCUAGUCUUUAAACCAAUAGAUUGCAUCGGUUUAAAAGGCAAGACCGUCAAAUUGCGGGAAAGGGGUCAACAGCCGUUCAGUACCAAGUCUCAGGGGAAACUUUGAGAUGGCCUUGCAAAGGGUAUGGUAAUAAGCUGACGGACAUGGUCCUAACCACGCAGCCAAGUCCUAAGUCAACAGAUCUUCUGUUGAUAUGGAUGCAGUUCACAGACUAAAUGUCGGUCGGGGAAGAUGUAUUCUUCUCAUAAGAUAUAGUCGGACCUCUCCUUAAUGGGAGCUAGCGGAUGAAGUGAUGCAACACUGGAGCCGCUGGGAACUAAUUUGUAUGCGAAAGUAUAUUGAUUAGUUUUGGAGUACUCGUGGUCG;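 also: selection with 25 µg/mL kanamycin versus none on LB agar overnight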
# experimental.parameters: 37 °C
Answers are plain numbers.

Some sequences with recorded self-splicing fitness (ln):
UGGUAGCAAUAUUACGAUAU: -1.62
GCAGAGCAAUAUUACGCUGA: -0.433
GCUUAGCAAUAUUACGAUAG: -0.174
GAUCAGCAAUAUUACGAGGC: -1.92
AAUUAGCAAUAUUACGCGGU: -1.55

Alright, here's another sequence for you.
Query self-splicing fitness (ln) for `AGACAGCAAUAUUACGUCUC`
-3.53
